- Assayed target: MAGE-A11:PCF11 interaction (GST-MAGE-A11 and FAM-PCF11_4) (Homo sapiens, UniProt P43364)
- Construct: GST-MAGE-A11 MHD (human MAGE-A11 MHD amino acid 218-429); made in house; host or cells: E. coli BL21(DE3)
- Sequence (P43364 218-429): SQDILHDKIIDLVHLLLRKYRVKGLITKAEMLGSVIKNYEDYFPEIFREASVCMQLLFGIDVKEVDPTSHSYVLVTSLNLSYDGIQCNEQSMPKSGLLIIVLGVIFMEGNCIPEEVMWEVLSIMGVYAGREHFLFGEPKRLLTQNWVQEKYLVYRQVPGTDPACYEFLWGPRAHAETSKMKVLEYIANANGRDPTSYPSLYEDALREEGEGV
- Test description: TR-FRET primary / single point screen at 15 µM
- Type: binding
- Assay setup: single point TR-FRET screening of 797 quinoline compounds against MAGE-A11:PCF11
Endpoint label: percent inhibition (TR-FRET)

Look over these answered cases.
molecule=COc1ccc2nc3cc(Cl)ccc3c(NCCCNCc3cc(Br)cs3)c2c1 endpoint_label="percent inhibition (TR-FRET)" readout_value=-287.642
molecule=CN1CCN(c2c(S(=O)(=O)c3ccccc3)cnc3ccc(F)cc23)CC1 endpoint_label="percent inhibition (TR-FRET)" readout_value=-11.5001
molecule=Cc1cccc(N2CCN(c3c(S(=O)(=O)c4ccccc4)cnc4ccccc34)CC2)c1C endpoint_label="percent inhibition (TR-FRET)" readout_value=-13.1252
molecule=COc1ccc(C(F)(F)F)cc1CN(CCCCNc1ccnc2cc(Cl)ccc12)Cc1ccccc1 endpoint_label="percent inhibition (TR-FRET)" readout_value=31.8155
molecule=CCCN(CCCNc1c2ccc(Cl)cc2nc2ccc(OC)cc12)Cc1cccc2c1OCO2 endpoint_label="percent inhibition (TR-FRET)" readout_value=-107.991
molecule=COc1ccc2nc3cc(Cl)ccc3c(NCCCNCc3ccc4c(c3)OCO4)c2c1 endpoint_label="percent inhibition (TR-FRET)" readout_value=-363.307
molecule="CCCN(CCCNc1c2ccc(Cl)cc2nc2ccc(OC)cc12)CCC(C)c1ccccc1 (centres unmarked)" endpoint_label="percent inhibition (TR-FRET)" readout_value=-120.975

**Query** Give percent inhibition (TR-FRET) for the following molecule: "O=[N+]([O-])c1ccccc1CN1CCC(Nc2ccnc3cc(Cl)ccc23)CC1"
**Result** -2.0257
